System: MS2 coat protein
Protocol details: apparent KD of MS2 coat protein; designed switch direction (-1 OFF switch, 1 ON switch): -1; higher = weaker reporter binding
Condition set: input ligand: FMN 200 uM
I'd be grateful if you could share measured apparent KD of MS2 coat protein for these entries.
Give the number first and the unit second.

Quick check: apparent KD of MS2 coat protein of UGCAGACGAGGAUAUGAUCAAUAAUACAUGAGGAUCACCCAUGUAAUACUGAUCCAUGGAUCAGAAGGUGUCUGCA [E5/5-B2] (Eterna round: R97, puzzle: Exclusion 5) ? 0.0195 µM

Quick check: apparent KD of MS2 coat protein of GGGUGACAUGAGGAUCACCCAUGUCAGGAUAUGGGCUCGGGCUCGAAAGGGUCUGGGUCUAGAAGGGACUGCCC [-36.1, -35.1 kcal, 22%A (-3 GC series)] (Eterna round: R97, puzzle: Exclusion 1) ? 0.137 µM

Quick check: apparent KD of MS2 coat protein of AACCUACAUGAGGAUCACCCAUGUGAGGAUAUAUUGGUAUUGAUGUUAUUUUUUAGAGGUAGAAGGCGCGUGAU [JR_Exc1_Sub022] (Eterna round: R97, puzzle: Exclusion 1) ? 0.015 µM

Quick check: apparent KD of MS2 coat protein of UACCUGAGGCAAAGCUUUAGGUAAACAUGAGGAUCACCCAUGUAGGAUAUGGUAGGCAAAGCUUACCAGAAGGACAUGUUAAUU [Mat - Exclusion NG 3 - Mod of JL - D34] (Eterna round: R96, puzzle: Exclusion NG 3) ? 0.341 µM

Quick check: apparent KD of MS2 coat protein of ACAUGAGGAUCACCCAUGUGAAAGAAAUGGCUGACUUUGAGCUAGGAUAUUUGUGCAUAUCAAACAAAGAAGGAGCAUUACUGG [Deportation 99 - Jieux - Exclusion NG 3] (Eterna round: R96, puzzle: Exclusion NG 3) ? 0.0204 µM

Quick check: apparent KD of MS2 coat protein of GCGGAGUCAGGAUAUUGAAUUUAACGUACCAAUUAGGUACGCGAGAAGGGACAUGAGGAUCACCCAUGUACCGC [Eli x4 4.03] (Eterna round: R97, puzzle: Exclusion 4) ? 0.0114 µM

Quick check: apparent KD of MS2 coat protein of UUAAAUCAUGUAGGAUAUGCGUGGCGAAGCUAUGCAGAAGGACAUGAGGAUCACCCAUGUUCUAGCGUCUGCGUACAGAUGCAA [JL ENG1 1.10] (Eterna round: R96, puzzle: Exclusion NG 1) ? 0.0931 µM

Quick check: apparent KD of MS2 coat protein of UCUUCACAUGAGGAUCACCCAUGUCAGGAUAUGCUCCCGAGUCACCUUAUCAUGGGACGCAGAAGGGACAUUAU [EX1 B.3] (Eterna round: R97, puzzle: Exclusion 1) ? 0.043 µM

Quick check: apparent KD of MS2 coat protein of AGAUAUCUAGGAUAUGCGUCGCGGAGGACUCCGAAGGGAGGACAUGAGGAUCACCCAUGUAGAAGGAGACAUUG [Eternabot (L2) Solution 38] (Eterna round: R97, puzzle: Exclusion 2) ? 0.046 µM

---

System: MS2 coat protein
Protocol details: apparent KD of MS2 coat protein; designed switch direction (-1 OFF switch, 1 ON switch): -1; higher = weaker reporter binding
Condition set: input ligand: none
Lab note: anything with apparent KD of MS2 coat protein at or over 50 nM counts as 1; the rest go in 0.

Item UAAAAGCUAGGAUAUACAUGAGGAUCACCCAUGUAUUAGGGCAUGAAAUCGGUCCCACGUAGAAGGAGCGACAC [Dilaxeed] (Eterna round: R97, puzzle: Exclusion 3) with apparent KD of MS2 coat protein of 50 nM or above? 0

Item UGCUGACGAGGAUAUACAUGAGGAUCACCCAUGUUGGUCAAGCGACUUCGGUCGCAAUGUAGAAGGCGUCAGCA [E3/8-A5] (Eterna round: R97, puzzle: Exclusion 3) with apparent KD of MS2 coat protein of 50 nM or above? 1

Item GUCAUCUAUCAUGGGAUAAACAUGAGGAUCACCCAUGUAUACAAGUUUUUUGCUCGUCUUAUAAUAAGAUAGAUGAC [Antenna 4 - Jieux - Sensor, turn-off variant 1] (Eterna round: R97, puzzle: Sensor, turn-off variant 1) with apparent KD of MS2 coat protein of 50 nM or above? 0

Item CGUUGGAAAGGAUAUACAUGAGGAUCACCCAUGUGAAAUUAUAGUGAGGAAAUGAAAAGUAGAAGGUUCUGACA [Mod of Mat 6 - Jieux - Exclusion 3] (Eterna round: R97, puzzle: Exclusion 3) with apparent KD of MS2 coat protein of 50 nM or above? 0

Item CAUAGUUGCUCAGGAUAUCAUACAUGAGGAUCACCCAUGUAAUAAAUGAGAAUUUCGAAUGUAAAUGAGAAGGGAGAAAUCUAC [Ostracism 60 - Jieux - Exclusion NG 2] (Eterna round: R96, puzzle: Exclusion NG 2) with apparent KD of MS2 coat protein of 50 nM or above? 0

Item CUGAUUCUAGUAAGGAUAUCGGCGUGCACAGCAGCCGAGAAGGUACAUGAGGAUCACCCAUGUUGCUUCAACUU [Eternabot (Original) Solution 43] (Eterna round: R97, puzzle: Brourd's mod of Exclusion 4) with apparent KD of MS2 coat protein of 50 nM or above? 0

Item CCCUCGGGAGGAUAUGGGUGUUUUUACAUGAGGAUCACCCAUGUAGAGUAAUAUGUGGGUCCAGAAGGCCCAAGGG [-26, -24.7 kcal, 25% A] (Eterna round: R97, puzzle: Exclusion 5) with apparent KD of MS2 coat protein of 50 nM or above? 1

Item UUGUUGUAUGUAGGAUAUGCGUAUUAUUAUUGGGCAGAAGGACAUGAGGAUCACCCAUGUAUGUUGUUGUUAUAUAUUAUAUAU [Title] (Eterna round: R96, puzzle: Exclusion NG 1) with apparent KD of MS2 coat protein of 50 nM or above? 0

Item UAUGGUUAAGUCAGGAUAUGCUCGUAGUGGUCUAUGCAGAAGGGACAUGAGGAUCACCCAUGUAUGGUCGUGUU [Ex4 #68] (Eterna round: R97, puzzle: Brourd's mod of Exclusion 4) with apparent KD of MS2 coat protein of 50 nM or above? 1
